- Measured target: T1, human CD47 on cells (SHP-77 tumor cells, human red blood cells, CCRF-CEM cells, human CD47 CHO-K1 stable cell … (human, UniProt Q08722 19-323))
- T1 construct: whole, on cells; also called RBC
- Assay procedure: flow cytometry on SHP-77 cells
# key: entry, value: Fitted Maximal MFI
Endpoint: Fitted Maximal MFI (MFI)

Binder: 108VH5.M23 / 108VL1.M5 (antibody, human IgG4 S228P, kappa, V domains shown, Full-length IgG4 (S228P), kappa; also called VH5.M23 VL1.M5) VH: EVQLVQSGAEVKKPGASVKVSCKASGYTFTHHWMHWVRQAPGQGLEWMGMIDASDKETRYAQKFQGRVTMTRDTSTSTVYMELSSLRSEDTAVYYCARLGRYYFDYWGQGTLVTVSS VL: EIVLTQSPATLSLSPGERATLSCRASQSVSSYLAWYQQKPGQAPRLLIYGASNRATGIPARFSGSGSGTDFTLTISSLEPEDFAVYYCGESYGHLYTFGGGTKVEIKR
Endpoint: Fitted Maximal MFI
Measured number: 42100
--
Binder: 108VH10.Mk / 108VL10.Me (antibody, V domains shown, 4D5-framework series; also called VH10.Mk VL10.Me) VH: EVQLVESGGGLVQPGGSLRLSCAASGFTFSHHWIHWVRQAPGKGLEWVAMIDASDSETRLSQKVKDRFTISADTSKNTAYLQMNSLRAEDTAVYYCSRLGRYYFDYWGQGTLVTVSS VL: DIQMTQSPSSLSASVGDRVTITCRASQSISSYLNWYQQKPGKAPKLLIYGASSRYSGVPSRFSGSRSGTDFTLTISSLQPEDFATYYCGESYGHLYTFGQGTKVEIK
Endpoint: Fitted Maximal MFI
Measured number: 30000
--
Binder: 108VH10.Mp / 108VL10.Me (antibody, V domains shown, 4D5-framework series; constant regions not restated for this series; also called VH10.Mp VL10.Me) VH: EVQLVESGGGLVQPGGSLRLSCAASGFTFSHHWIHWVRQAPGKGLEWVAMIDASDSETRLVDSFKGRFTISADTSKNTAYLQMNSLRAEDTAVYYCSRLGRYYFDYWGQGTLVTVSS VL: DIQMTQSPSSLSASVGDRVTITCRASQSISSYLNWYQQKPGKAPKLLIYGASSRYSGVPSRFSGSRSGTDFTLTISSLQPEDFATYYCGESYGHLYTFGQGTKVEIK
Endpoint: Fitted Maximal MFI
Measured number: 24100
--
Binder: 108VH5.M25 / 108VL1.M5 (antibody, human IgG4 S228P, kappa, V domains shown, Full-length IgG4 (S228P), kappa; also called VH5.M25 VL1.M5) VH: EVQLVQSGAEVKKPGASVKVSCKASGYTFTHHWMHWVRQAPGQGLEWMGMIDASDRETRYAQKFQGRVTMTRDTSTSTVYMELSSLRSEDTAVYYCARLGRYYFDYWGQGTLVTVSS VL: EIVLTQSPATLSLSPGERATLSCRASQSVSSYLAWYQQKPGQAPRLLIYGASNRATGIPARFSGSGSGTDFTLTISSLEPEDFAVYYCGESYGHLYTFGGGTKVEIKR
Endpoint: Fitted Maximal MFI
Measured number: 39600
--
Binder: 108VH5.M6 / 108VL1.M5 (antibody, human IgG4 S228P, kappa, V domains shown, Full-length IgG4 (S228P), kappa; also called VH5.M6 VL1.M5) VH: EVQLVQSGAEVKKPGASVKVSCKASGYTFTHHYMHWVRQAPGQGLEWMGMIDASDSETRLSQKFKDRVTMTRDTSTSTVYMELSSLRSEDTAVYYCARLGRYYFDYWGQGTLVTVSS VL: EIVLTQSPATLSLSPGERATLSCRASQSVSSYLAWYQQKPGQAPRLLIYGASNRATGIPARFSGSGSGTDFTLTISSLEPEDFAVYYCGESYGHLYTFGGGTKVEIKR
Endpoint: Fitted Maximal MFI
Measured number: 6250
